inhibition for assorted molecules
- Target Or System: EGFR (human)
- Run Parameters: ht-29, concentration not given here
Report field: quantity (unit follows the number).

In the examples that follow, each entry is paired with its recorded inhibition.
>  <Chemical Smiles>
COc1cc(Nc2c(C#N)cnc3cc4nc[nH]c4cc23)cc(OC)c1OC

>  <Result>
0%

$$$$
>  <Chemical Smiles>
COc1ccc(Cl)c(Nc2c(C#N)cnc3cc4nc[nH]c4cc23)c1

>  <Result>
10%

$$$$
>  <Chemical Smiles>
COc1cc(Nc2c(C#N)cnc3cc4nc[nH]c4cc23)c(Br)cc1Cl

>  <Result>
35%

$$$$

Quick note, inhibition for N#Cc1cnc2cc3nc[nH]c3cc2c1Nc1ccc(Cl)cc1Br landed at 25%

* * *

- Target Or System: EGFR (human)
- Run Parameters: ht-29
IC50 for assorted compounds

>  <Chemical Smiles>
COc1cc(Nc2c(C#N)cnc3cc4cc(OCCN5CCOCC5)c(OC)cc4cc23)c(C)cc1Cl

>  <IC50>
> 10 µM

$$$$
>  <Chemical Smiles>
CCOc1cc2cc3c(Nc4cc(OC)c(Cl)cc4C)c(C#N)cnc3cc2cc1OCCN1CCOCC1

>  <IC50>
> 10 µM

$$$$
>  <Chemical Smiles>
COc1cc(Nc2c(C#N)cnc3cc4cc(OCCN5CCN(C)CC5)c(OC)cc4cc23)c(C)cc1Cl

>  <IC50>
8.6 µM

$$$$

Let's switch to this compound now.
Quick note, IC50 for COc1cc(Nc2c(C#N)cnc3cc4cc(OCCN5CCOCC5)c(OC)cc4cc23)c(Cl)cc1C landed at 9.95 µM

* * *

IC50 for assorted molecules
- Target Or System: EGFR (human) (UniProt P00533)
- Sequence (P00533 whole entry, looked up): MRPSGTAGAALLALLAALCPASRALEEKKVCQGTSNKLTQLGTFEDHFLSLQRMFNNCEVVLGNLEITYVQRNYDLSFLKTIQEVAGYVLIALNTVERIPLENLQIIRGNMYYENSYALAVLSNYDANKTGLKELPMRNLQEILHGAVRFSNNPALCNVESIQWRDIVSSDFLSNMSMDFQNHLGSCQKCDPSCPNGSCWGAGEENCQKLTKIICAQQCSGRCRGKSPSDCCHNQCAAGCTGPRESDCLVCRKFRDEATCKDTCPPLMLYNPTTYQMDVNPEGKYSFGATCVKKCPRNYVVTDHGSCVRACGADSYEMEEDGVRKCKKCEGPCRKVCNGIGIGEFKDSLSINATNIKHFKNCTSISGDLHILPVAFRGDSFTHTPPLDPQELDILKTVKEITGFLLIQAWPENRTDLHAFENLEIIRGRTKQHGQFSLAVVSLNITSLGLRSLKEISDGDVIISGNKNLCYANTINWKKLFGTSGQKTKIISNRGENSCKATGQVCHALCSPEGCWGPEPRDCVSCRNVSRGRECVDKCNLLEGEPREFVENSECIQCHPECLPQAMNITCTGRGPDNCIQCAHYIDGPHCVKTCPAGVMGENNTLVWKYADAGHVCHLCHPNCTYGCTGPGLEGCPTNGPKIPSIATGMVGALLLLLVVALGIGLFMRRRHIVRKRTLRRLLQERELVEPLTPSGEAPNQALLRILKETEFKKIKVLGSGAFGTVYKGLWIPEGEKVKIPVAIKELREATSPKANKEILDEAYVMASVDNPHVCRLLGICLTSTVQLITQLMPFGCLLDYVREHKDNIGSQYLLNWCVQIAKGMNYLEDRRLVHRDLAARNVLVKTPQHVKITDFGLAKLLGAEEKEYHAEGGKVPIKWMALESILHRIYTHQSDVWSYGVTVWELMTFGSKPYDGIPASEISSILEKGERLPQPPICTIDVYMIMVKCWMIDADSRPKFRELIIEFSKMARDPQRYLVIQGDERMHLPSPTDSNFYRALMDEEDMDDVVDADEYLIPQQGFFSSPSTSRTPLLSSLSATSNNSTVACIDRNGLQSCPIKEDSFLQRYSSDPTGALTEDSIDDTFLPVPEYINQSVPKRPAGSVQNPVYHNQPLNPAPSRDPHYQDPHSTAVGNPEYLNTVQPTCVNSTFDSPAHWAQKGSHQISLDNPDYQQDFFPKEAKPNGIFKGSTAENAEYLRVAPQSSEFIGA
- Run Parameters: mda-mb-435
Return type: number; implicit unit µg/mL.

>  <Chemical Smiles>
C=CC(=O)Nc1ccc2sc3c(Nc4cccc(Br)c4)c(C#N)cnc3c2c1

>  <IC50 [µg/mL]>
1.69

$$$$
>  <Chemical Smiles>
C=CC(=O)Nc1cccc2c1sc1c(Nc3cccc(Br)c3)c(C#N)cnc12

>  <IC50 [µg/mL]>
3.9

$$$$
>  <Chemical Smiles>
N#Cc1cnc2cc3ccccc3cc2c1Nc1ccc(F)c(Cl)c1

>  <IC50 [µg/mL]>
1.65

$$$$

Quick note, IC50 for N#Cc1cnc2c(sc3ccc([N+](=O)[O-])cc32)c1Nc1ccc(Cl)cc1Cl landed at 0.46

* * *

- Target Or System: EGFR (human)
- Run Parameters: mda-mb-435
Measured Endpoint: IC50 (µg/mL)
Return type: number; implicit unit µg/mL.

In the examples that follow, each entry is paired with its recorded IC50.
>  <Chemical Smiles>
N#Cc1cnc2cc3nc[nH]c3cc2c1Nc1cccc(Br)c1

>  <Target Or System>
EGFR (human)

>  <Numeric Readout>
3.48

$$$$
>  <Chemical Smiles>
N#Cc1cnc2cc3cc(O)c(O)cc3cc2c1Nc1ccc(Cl)cc1Cl

>  <Target Or System>
EGFR (human)

>  <Numeric Readout>
0.85

$$$$

Quick note, IC50 for COc1cc2cc3c(Nc4ccc(OCc5ccccc5)c(Cl)c4)c(C#N)cnc3cc2cc1OCCN1CCOCC1 landed at 33.5

* * *

- Target Or System: EGFR (human)
- Run Parameters: sk-br-3
IC50 for assorted compounds
Return type: number; implicit unit µg/mL.

In the examples that follow, each entry is paired with its recorded IC50.
>  <Chemical Smiles>
COc1cc2cc3ncc(C#N)c(Nc4ccc(F)c(Cl)c4)c3cc2cc1OCCN1CCOCC1

>  <Unit Of Measure>
µg/mL

>  <IC50>
0.04

$$$$
>  <Chemical Smiles>
N#Cc1cnc2c(sc3ccc([N+](=O)[O-])cc32)c1Nc1ccc(Cl)cc1Cl

>  <Unit Of Measure>
µg/mL

>  <IC50>
0.59

$$$$
>  <Chemical Smiles>
C=CC(=O)Nc1cccc2c1sc1c(Nc3cccc(Br)c3)c(C#N)cnc12

>  <Unit Of Measure>
µg/mL

>  <IC50>
1.09

$$$$

Let's switch to this compound now.
Quick note, IC50 for N#Cc1cnc2cc3nc[nH]c3cc2c1Nc1cccc(Br)c1 landed at 0.6

* * *

- Target Or System: EGFR (human)
- Run Parameters: sw 620
IC50 for assorted compounds
Return type: number; implicit unit µg/mL.

>  <Chemical Smiles>
N#Cc1cnc2c(sc3ccc([N+](=O)[O-])cc32)c1Nc1ccc(Cl)cc1Cl

>  <Target Or System>
EGFR (human)

>  <Measured Endpoint>
IC50

>  <Unit Of Measure>
µg/mL

>  <Numeric Readout>
0.67

$$$$
>  <Chemical Smiles>
COc1cc2cc3ncc(C#N)c(Nc4ccc(F)c(Cl)c4)c3cc2cc1OCCN1CCOCC1

>  <Target Or System>
EGFR (human)

>  <Measured Endpoint>
IC50

>  <Unit Of Measure>
µg/mL

>  <Numeric Readout>
0.36

$$$$
>  <Chemical Smiles>
N#Cc1cnc2cc3nc[nH]c3cc2c1Nc1cccc(Br)c1

>  <Target Or System>
EGFR (human)

>  <Measured Endpoint>
IC50

>  <Unit Of Measure>
µg/mL

>  <Numeric Readout>
3.72

$$$$

The recorded IC50 with EGFR (human) for COc1cc2cc3c(Nc4ccc(OCc5ccccc5)c(Cl)c4)c(C#N)cnc3cc2cc1OCCN1CCOCC1 was 11.6

The recorded IC50 with EGFR (human) for C=CC(=O)Nc1ccc2sc3c(Nc4cccc(Br)c4)c(C#N)cnc3c2c1 was 1

The recorded IC50 with EGFR (human) for N#Cc1cnc2cc3cc(O)c(O)cc3cc2c1Nc1ccc(Cl)cc1Cl was 0.38

The recorded IC50 with EGFR (human) for N#Cc1cnc2cc3ccccc3cc2c1Nc1ccc(F)c(Cl)c1 was 1.08

* * *

- Target Or System: EGFR (human) (UniProt P00533)
- Run Parameters: a431
T if IC50 is below 0.8 µg/mL. F if not; exact matches included in F.

Past entries and their recorded results:
>  <Chemical Smiles>
N#Cc1cnc2cc3ccccc3cc2c1Nc1ccc(F)c(Cl)c1

>  <Assigned Label>
T

$$$$
>  <Chemical Smiles>
N#Cc1cnc2c(sc3ccc([N+](=O)[O-])cc32)c1Nc1ccc(Cl)cc1Cl

>  <Assigned Label>
T

$$$$
>  <Chemical Smiles>
COc1cc2cc3c(Nc4ccc(OCc5ccccc5)c(Cl)c4)c(C#N)cnc3cc2cc1OCCN1CCOCC1

>  <Assigned Label>
F

$$$$
>  <Chemical Smiles>
N#Cc1cnc2c(sc3ccc(N)cc32)c1Nc1cccc(Br)c1

>  <Assigned Label>
F

$$$$
>  <Chemical Smiles>
N#Cc1cnc2c(oc3ccccc32)c1Nc1cccc(Br)c1

>  <Assigned Label>
F

$$$$

Hi there! Is IC50 for COc1cc2cc3ncc(C#N)c(Nc4ccc(F)c(Cl)c4)c3cc2cc1OCCN1CCOCC1 below 0.8 µg/mL, do you know?
T

Hi there! Is IC50 for N#Cc1cnc2cc3cc(O)c(O)cc3cc2c1Nc1ccc(Cl)cc1Cl below 0.8 µg/mL, do you know?
T

Hi there! Is IC50 for N#Cc1cnc2c(sc3ccccc32)c1Nc1cccc(Br)c1 below 0.8 µg/mL, do you know?
F

Hi there! Is IC50 for C=CC(=O)Nc1cccc2c1sc1c(Nc3cccc(Br)c3)c(C#N)cnc12 below 0.8 µg/mL, do you know?
F

Hi there! Is IC50 for N#Cc1cnc2cc3nc[nH]c3cc2c1Nc1cccc(Br)c1 below 0.8 µg/mL, do you know?
T

Hi there! Is IC50 for C=CC(=O)Nc1ccc2sc3c(Nc4cccc(Br)c4)c(C#N)cnc3c2c1 below 0.8 µg/mL, do you know?
F

Hey, just so you know, these numbers are from the Kinase Knowledgebase extract (Sharma et al. 2016).
